All figures here come from ChEMBL document CHEMBL2074384.

# system: ATP-binding cassette sub-family C member 2 (Rattus norvegicus, UniProt Q63120)
# Sequence (Q63120 whole entry): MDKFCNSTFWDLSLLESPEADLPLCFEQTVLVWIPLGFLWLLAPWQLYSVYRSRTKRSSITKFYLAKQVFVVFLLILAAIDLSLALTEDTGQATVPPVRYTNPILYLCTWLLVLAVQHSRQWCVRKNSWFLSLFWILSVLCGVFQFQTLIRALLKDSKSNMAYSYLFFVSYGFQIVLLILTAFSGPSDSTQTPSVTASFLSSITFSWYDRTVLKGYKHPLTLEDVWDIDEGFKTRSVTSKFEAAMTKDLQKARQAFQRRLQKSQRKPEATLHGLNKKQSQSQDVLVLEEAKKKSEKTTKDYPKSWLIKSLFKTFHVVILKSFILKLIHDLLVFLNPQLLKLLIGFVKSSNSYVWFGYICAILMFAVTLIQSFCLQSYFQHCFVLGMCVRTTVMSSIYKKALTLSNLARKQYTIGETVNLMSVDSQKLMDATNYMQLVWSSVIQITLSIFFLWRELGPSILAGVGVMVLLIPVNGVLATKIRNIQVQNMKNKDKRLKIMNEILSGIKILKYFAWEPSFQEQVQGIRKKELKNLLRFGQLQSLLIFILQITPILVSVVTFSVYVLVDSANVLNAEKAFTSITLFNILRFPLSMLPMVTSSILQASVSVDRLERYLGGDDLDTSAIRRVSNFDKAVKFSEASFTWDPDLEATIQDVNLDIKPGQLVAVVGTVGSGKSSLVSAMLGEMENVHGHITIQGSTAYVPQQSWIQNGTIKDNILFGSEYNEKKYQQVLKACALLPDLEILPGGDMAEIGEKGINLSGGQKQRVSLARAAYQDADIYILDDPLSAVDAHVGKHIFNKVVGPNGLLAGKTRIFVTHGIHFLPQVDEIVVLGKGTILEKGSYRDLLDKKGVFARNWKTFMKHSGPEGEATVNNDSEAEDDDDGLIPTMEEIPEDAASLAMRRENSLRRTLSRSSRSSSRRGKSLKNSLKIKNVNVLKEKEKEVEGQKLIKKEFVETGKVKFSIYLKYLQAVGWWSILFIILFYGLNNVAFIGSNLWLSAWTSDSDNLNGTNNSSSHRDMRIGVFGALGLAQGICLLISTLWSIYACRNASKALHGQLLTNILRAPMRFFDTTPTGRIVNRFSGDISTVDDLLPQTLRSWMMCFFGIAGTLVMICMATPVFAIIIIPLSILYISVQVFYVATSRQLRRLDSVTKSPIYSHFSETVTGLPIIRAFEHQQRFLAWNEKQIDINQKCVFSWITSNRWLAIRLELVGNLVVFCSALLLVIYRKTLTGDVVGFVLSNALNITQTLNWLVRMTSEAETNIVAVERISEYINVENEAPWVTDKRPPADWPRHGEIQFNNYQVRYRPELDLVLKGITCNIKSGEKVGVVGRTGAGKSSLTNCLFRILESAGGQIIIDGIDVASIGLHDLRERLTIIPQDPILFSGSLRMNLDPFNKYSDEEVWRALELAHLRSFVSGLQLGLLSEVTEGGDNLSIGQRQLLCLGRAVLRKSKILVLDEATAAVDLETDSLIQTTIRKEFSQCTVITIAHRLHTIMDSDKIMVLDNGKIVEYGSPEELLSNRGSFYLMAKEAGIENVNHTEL
# assayDetails: TP_TRANSPORTER: inhibition of DNP-SG uptake in bile canalicular membrane vesicles from SD rat
# Type: functional, cell membranes, Sprague-Dawley, Bile canalicular membrane vesicle
pKi: −log10 of the molar value.
property: pKi

Nc1nc2c(c(=O)[nH]1)N1CN(c3ccc(C(=O)N[C@@H](CCC(=O)O)C(=O)O)cc3)CC1CN2 (stereo partly drawn) : 3.57

[A] CN1c2c(nc(N)[nH]c2=O)NC[C@@H]1CNc1ccc(C(=O)N[C@@H](CCC(=O)O)C(=O)O)cc1
[B] Nc1nc2c(c(=O)[nH]1)NC(CNc1ccc(C(=O)N[C@@H](CCC(=O)O)C(=O)O)cc1)CN2 (stereo partly drawn) [TETRAHYDROFOLATE]
Request: Between the entries labelled A and B , which has a larger pKi value on record? Refer to your chosen entry by its label in the reply.
Result: A

---

# system: ATP-binding cassette sub-family C member 2 (Rattus norvegicus, UniProt Q63120)
# assayDetails: TP_TRANSPORTER: inhibition of 5-methyltetrahydrofolate uptake in bile canalicular membrane vesicles from SD rat
# Format: functional, cell membranes, Sprague-Dawley, Bile canalicular membrane vesicle
property: Ki (µM)
Quick reminder: number only, in µM, skip the unit.

Request: Reported Ki for N[C@@H](CCC(=O)N[C@H](CSc1ccc([N+](=O)[O-])cc1[N+](=O)[O-])C(=O)NCC(=O)O)C(=O)O : what is it?
Result: 34.5
